Data credit: the supplement of paper PMC10567573

B1: CHCHD3 (parent)
chain: YSGAYGASVSDEELKRRVAEELAL

Variants of: B1
measurementNotes: protein stability index of a GFP-peptide fusion (GPS, HEK-293T) (PSI 1-6); higher = more stable;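 further: lentivirally expressed fusions sorted by FACS into six bins by GFP to DsRed ratio, PSI derived from sequencing read proportions per bin multiplied by bin number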
conditionSummary: c terminus: a fixed tail appended
Catalogue of protein stability index values

{"change": "A7H", "val": 2.98}
{"change": "S8H", "val": 2.98}
{"change": "L14K", "val": 2.94}
{"change": "A7M", "val": 2.94}

Provide measured protein stability index value, entry: A19L 3.05

Provide measured protein stability index value, entry: S10V 2.92

Provide measured protein stability index value, entry: A4N 2.97

Provide measured protein stability index value, entry: A23G 3.02

Provide measured protein stability index value, entry: E21A 2.94

Provide measured protein stability index value, entry: A19P 3.04

Provide measured protein stability index value, entry: E20S 3.03

Provide measured protein stability index value, entry: G3A 2.94

Provide measured protein stability index value, entry: A4R 3.03

Provide measured protein stability index value, entry: G3F 3.05

Provide measured protein stability index value, entry: E12Y 3.02
